Every entry's value here was drawn from patent US20250163038A1.

Please provide measured IC50 for the entries that follow.
target: Recombinant human Cbl-b (aa 36-427) (Homo sapiens, UniProt Q13191); experiment: Cbl-b Biochemical Assay (TR-FRET); conditions: read-out: TR-FRET hCbl-b IC50
Sequence (Q13191 36-427): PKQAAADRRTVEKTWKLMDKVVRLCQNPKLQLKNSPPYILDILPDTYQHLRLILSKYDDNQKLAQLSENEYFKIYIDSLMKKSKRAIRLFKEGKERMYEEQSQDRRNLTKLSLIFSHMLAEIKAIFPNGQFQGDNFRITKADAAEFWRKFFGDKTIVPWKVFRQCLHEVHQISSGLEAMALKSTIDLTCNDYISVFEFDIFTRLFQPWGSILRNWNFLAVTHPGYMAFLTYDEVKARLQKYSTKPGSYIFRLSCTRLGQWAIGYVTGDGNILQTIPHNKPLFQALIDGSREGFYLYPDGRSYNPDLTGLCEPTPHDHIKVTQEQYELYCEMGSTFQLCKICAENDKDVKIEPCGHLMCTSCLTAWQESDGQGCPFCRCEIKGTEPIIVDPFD

(Q) Fill: IC50 (Recombinant human Cbl-b (aa 36-427) (Homo sapiens, UniProt Q13191)) for this compound "CN(Cc1cc(C(F)(F)F)c2oc(-c3cccc(-c4ccc(F)cc4-c4nncn4C)c3)nc2c1)[C@@H]1CCC[C@@H]1O"
(A) < 200 nM

(Q) Fill: IC50 (Recombinant human Cbl-b (aa 36-427) (Homo sapiens, UniProt Q13191)) for this compound "COc1cc(CO)cc2nc(-c3cccc([C@]4(c5nncn5C)C[C@@H](C)C4)c3)oc12"
(A) 1000 to 10000 nM

(Q) Fill: IC50 (Recombinant human Cbl-b (aa 36-427) (Homo sapiens, UniProt Q13191)) for this compound "Cn1cnnc1-c1ccccc1-c1cccc(-c2nc3cccc(C(F)(F)F)c3[nH]2)c1"
(A) 10000 to 50000 nM

(Q) Fill: IC50 (Recombinant human Cbl-b (aa 36-427) (Homo sapiens, UniProt Q13191)) for this compound Cn1cnnc1-c1cc(F)ccc1-c1cccc(-c2nc3cc(C(NCC4CCC4)C(F)(F)F)cc(F)c3o2)c1 (racemic)
(A) 1000 to 10000 nM

(Q) Fill: IC50 (Recombinant human Cbl-b (aa 36-427) (Homo sapiens, UniProt Q13191)) for this compound "Cn1cnnc1-c1cc(F)ccc1-c1cccc(-c2nc3cc(CNCC4(O)CCC4)cc(C(F)(F)F)c3[nH]2)c1"
(A) < 200 nM

(Q) Fill: IC50 (Recombinant human Cbl-b (aa 36-427) (Homo sapiens, UniProt Q13191)) for this compound "Cn1cnnc1-c1cc(F)ccc1-c1cccc(-c2nc3cc(CNCC4CCCC4)cc(C(F)(F)F)c3o2)c1"
(A) < 200 nM

(Q) Fill: IC50 (Recombinant human Cbl-b (aa 36-427) (Homo sapiens, UniProt Q13191)) for this compound CO[C@H](CO)c1cc(C(F)(F)F)c2oc(-c3cccc(-c4ccc(F)cc4-c4nncn4C)c3)nc2c1 (single isomer, unassigned)
(A) < 200 nM

(Q) Fill: IC50 (Recombinant human Cbl-b (aa 36-427) (Homo sapiens, UniProt Q13191)) for this compound "Cn1cnnc1-c1cc(F)ccc1-c1cccc(-c2nc3cc(CN[C@@H]4CCC[C@@H]4O)cc(Br)c3o2)c1"
(A) < 200 nM

(Q) Fill: IC50 (Recombinant human Cbl-b (aa 36-427) (Homo sapiens, UniProt Q13191)) for this compound "C[C@H]1CCCN(Cc2cc(C(F)(F)F)c3oc(-c4cc(-c5ccccc5-c5nncn5C)cc(C5CC5)n4)nc3c2)C1"
(A) < 200 nM

(Q) Fill: IC50 (Recombinant human Cbl-b (aa 36-427) (Homo sapiens, UniProt Q13191)) for this compound "Cn1cnnc1-c1cc(C#N)ccc1-c1cc(-c2nc3cc(CO)cc(F)c3o2)nc(C2CC2)c1"
(A) 200 to 1000 nM

(Q) Fill: IC50 (Recombinant human Cbl-b (aa 36-427) (Homo sapiens, UniProt Q13191)) for this compound "Cc1c(F)c(CNCC2(O)CCC2)cc2nc(-c3cc(-c4ccc(F)cc4-c4nncn4C)cc(C4CC4)n3)oc12"
(A) < 200 nM

(Q) Fill: IC50 (Recombinant human Cbl-b (aa 36-427) (Homo sapiens, UniProt Q13191)) for this compound "C[C@H]1CCCN(Cc2cc(F)c3oc(-c4cc(-c5ccc(C#N)cc5-c5nncn5C)cc(C5CC5)n4)nc3c2)C1"
(A) < 200 nM

(Q) Fill: IC50 (Recombinant human Cbl-b (aa 36-427) (Homo sapiens, UniProt Q13191)) for this compound "COC(=O)c1[nH]c(=O)c(-c2cccc(-c3ccccc3-c3nncn3C)c2)cc1C(F)(F)F"
(A) 10000 to 50000 nM

(Q) Fill: IC50 (Recombinant human Cbl-b (aa 36-427) (Homo sapiens, UniProt Q13191)) for this compound Cn1cnnc1-c1cc(F)ccc1-c1cccc(-c2nc3cc([C@H](CO)N4CCC4)cc(C(F)(F)F)c3o2)c1 (single isomer, unassigned)
(A) < 200 nM

(Q) Fill: IC50 (Recombinant human Cbl-b (aa 36-427) (Homo sapiens, UniProt Q13191)) for this compound "C[C@@H]1CCCN(Cc2cc(C(F)(F)F)c3oc(-c4cccc(-c5ccccc5-c5nncn5C)c4)nc3c2)C1"
(A) 1000 to 10000 nM

(Q) Fill: IC50 (Recombinant human Cbl-b (aa 36-427) (Homo sapiens, UniProt Q13191)) for this compound "Cn1cnnc1-c1cc(F)ccc1-c1cccc(-c2nc3cc(NCCN4CCC4)cc(C(F)(F)F)c3o2)c1"
(A) < 200 nM

(Q) Fill: IC50 (Recombinant human Cbl-b (aa 36-427) (Homo sapiens, UniProt Q13191)) for this compound "C[C@H]1CCCN(Cc2cc(C(F)(F)F)c3[nH]c(-c4cccc(-c5ccccc5-c5nncn5C)c4)nc3c2)C1"
(A) 200 to 1000 nM

(Q) Fill: IC50 (Recombinant human Cbl-b (aa 36-427) (Homo sapiens, UniProt Q13191)) for this compound "[2H]C([2H])([2H])N(Cc1cc(C(F)(F)F)c2oc(-c3cccc(-c4ccc(F)cc4-c4nncn4C)c3)nc2c1)[C@@H]1CCC[C@@H]1O"
(A) < 200 nM

(Q) Fill: IC50 (Recombinant human Cbl-b (aa 36-427) (Homo sapiens, UniProt Q13191)) for this compound "CCNc1cc(-c2c(-c3nncn3C)cnn2C)cc(-c2nc3cccc(C(F)(F)F)c3s2)n1"
(A) 10000 to 50000 nM

(Q) Fill: IC50 (Recombinant human Cbl-b (aa 36-427) (Homo sapiens, UniProt Q13191)) for this compound "COCCNCc1cc(OC)c2oc(-c3cccc(-c4ccc(F)cc4-c4nncn4C)c3)nc2c1"
(A) < 200 nM

(Q) Fill: IC50 (Recombinant human Cbl-b (aa 36-427) (Homo sapiens, UniProt Q13191)) for this compound "Cn1cnnc1-c1cc(F)ccc1-c1cccc(-c2nc3cc(CN[C@@H]4CCC[C@H]4O)cc(C(F)(F)F)c3[nH]2)c1"
(A) < 200 nM

(Q) Fill: IC50 (Recombinant human Cbl-b (aa 36-427) (Homo sapiens, UniProt Q13191)) for this compound "Cn1cnnc1-c1cc(F)ccc1-c1cccc(-c2nc3cc(CN[C@@H]4CCC[C@@H]4O)c(F)cc3o2)c1"
(A) < 200 nM

(Q) Fill: IC50 (Recombinant human Cbl-b (aa 36-427) (Homo sapiens, UniProt Q13191)) for this compound "Cn1cnnc1CC1(c2cccc(-c3nc4cc(C(=O)N5CC[C@H](O)C5)cc(C(F)(F)F)c4[nH]3)c2)COC1"
(A) < 200 nM

(Q) Fill: IC50 (Recombinant human Cbl-b (aa 36-427) (Homo sapiens, UniProt Q13191)) for this compound "Cn1cnnc1-c1cc(F)ccc1-c1cccc(-c2nc3cccc(C(F)(F)F)c3[nH]2)c1"
(A) 200 to 1000 nM

(Q) Fill: IC50 (Recombinant human Cbl-b (aa 36-427) (Homo sapiens, UniProt Q13191)) for this compound "CC(=O)NCCNCc1cc(C(F)(F)F)c2oc(-c3cccc(-c4ccc(F)cc4-c4nncn4C)c3)nc2c1"
(A) < 200 nM

(Q) Fill: IC50 (Recombinant human Cbl-b (aa 36-427) (Homo sapiens, UniProt Q13191)) for this compound CC(NCC1(O)CCC1)c1cc(C(F)(F)F)c2oc(-c3cccc(-c4ccc(F)cc4-c4nncn4C)c3)nc2c1 (centres unmarked)
(A) < 200 nM
